Source of measurements: patent US20220119517A1

target: T1, human Claudin18.2 (CLDN18.2), full length, on cells (human); assay: FACS on NUGC4 cells
T1 construct: also called CLDN18.2-FL; HEK293-CLDN18.2 cells
Measured MFI (CLDN18.2), listed per entry for reference.
Unit MFI implied. Number only.

*Q* Look up MFI (CLDN18.2): 330CHI (antibody, human IgG1, V domains shown, chimeric with the constant region of human IgG1; also called chimeric antibody 330CHI) VH: EVKLVESGGGLVQPGGSLKLSCAASGFGFSDYGMAWVRQAPRKGPEWVAFISNSAYSIYYADTVTGRFTISRENAKNTLYLEMSSLRSEDTAMYYCARLGRGNSFAYWGQGTLVTVSA VL: DIVMTQSPSSLTVTAGEKVTMSCKSSQSLLNSGNQKNYLTWYQQKPGQPPKLLIYWGSTRESGVPDRFTGSGSGTDFTLTISSVQAEDLAVYYCQNELFYPLTFGAGTKLELK
*A* 63700

*Q* 322CHI (antibody, human IgG1, V domains shown, chimeric with the constant region of human IgG1) VH: EVKLVESGGGLVQPGGSLKLSCAASGFTFSDYGMAWVRQAPRKGPEWVAFISNLAYSIYYADTVTGRFTISRENAKNTLYLEMSSLRSEDTAMYYCARLGYGNSFAYWGQGTLVTVSA VL: DIVMTQSPSSLTVTAGEKVTMSCKSSQSLLNSGNQKNYLTWYQQKPGQPPKLLIYWGSTRESGVPDRFTGSGSGTDFTLTISSVQAEDLAVYYCQNNYYYPLTFGAGTKLELK , same question.
*A* 44800

*Q* Also 301CHI (antibody, V domains shown, chimeric with the constant region of human IgG1) VH: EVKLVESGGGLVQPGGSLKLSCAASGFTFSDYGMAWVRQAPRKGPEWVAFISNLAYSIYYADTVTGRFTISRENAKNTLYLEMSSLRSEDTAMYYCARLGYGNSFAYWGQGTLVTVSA VL: DIVMTQSPSSLTVTAGEKVTMSCKSSQSLLNSGNQKNYLTWYQQKPGQPPKLLIYWASTRESGVPDRFTGSGSGTDFTLTISSVQAEDLAVYYCQNNYYYPLTFGAGTKLELK ?
*A* 44400

*Q* Then this binder: 303CHI (antibody, V domains shown, chimeric with the constant region of human IgG1) VH: EVKLVESGGGLVQPGGSLKLSCAASGFTFSRYGMAWVRQAPGKGPEWVAFISNSAYSIYYADTVTGRFTISRENAKNTLYLEMSSLRSEDTAMYYCARLGYGNSFAYWGQGTLVTVSA VL: DIVMTQSPSSLTVTAGEKVTMSCKSSQSLLNSGNQKNYLTWYQQKPGQPPKLLIYWGSTRESGVPDRFTGSGSGTDFTLTISSVQAEDLAVYYCQNDYSYPLTFGAGTKLELK
*A* 38200
